Data provenance is ChEMBL document CHEMBL3108700.

# TARGET_ENTITY: TLR2/TLR6 (Mus musculus) (UniProt Q9QUN7+Q9EPW9)
# ASSAY_METHOD_TEXT: Inhibition of TLR2/6 in BALB/c mouse BMDM assessed as downregulation of BLP-stimulated IL-6 level at 5 ug/ml preincubated for 18 hrs followed by BLP challenge measured after 24 hrs by ELISA relative to control
# Assay type: protein-complex assay
Active and inactive are the calls of the source. No rule for the calls is given here.
Labels: active, inactive

SMILES_REPRESENTATION: C[N+]1(CCCS(=O)(=O)Cc2ccc(Br)cc2)CCCC1
CLASS: inactive

SMILES_REPRESENTATION: O=S(=O)(CCN1CCOCC1)Nc1ccc(F)cc1
CLASS: inactive

SMILES_REPRESENTATION: COc1cccc(C(=O)NCCCN(C)C)c1
CLASS: inactive

SMILES_REPRESENTATION: O=S(=O)(CCN1CCOCC1)Nc1ccccc1
CLASS: inactive

SMILES_REPRESENTATION: Cc1ccc(CS(=O)(=O)CCCN2CCOCC2)cc1
CLASS: inactive

SMILES_REPRESENTATION: CC[C@H](C)NCCS(=O)(=O)Cc1cccc(F)c1
CLASS: inactive

SMILES_REPRESENTATION: O=S(=O)(CCN1CCOCC1)NCc1ccc(F)cc1
CLASS: active

SMILES_REPRESENTATION: O=[N+]([O-])c1ccc(CNS(=O)(=O)CCN2CCCC2)cc1
CLASS: inactive

SMILES_REPRESENTATION: CN(C)CCN(C)CCS(=O)(=O)Nc1ccccc1
CLASS: inactive
